Reported values of melting point for individual entries

{"molecule": "NC(=O)c1nn(-c2ccc3c(c2)OCO3)c2c1CCc1ccc(NC(=O)c3cc(N4CCOCC4)ncc3Cl)cc1-2 [Example 212]", "melting point": "269 to 271 °C"}
{"molecule": "CNc1ccc(Cl)c(C(=O)Nc2ccc3c(c2)-c2c(c(C(N)=O)nn2-c2ccc4c(c2)OCO4)CC3)n1 [Example 220]", "melting point": "269 to 270 °C (dec.)"}
{"molecule": "COc1ccc(CNc2ncccc2C(=O)Nc2ccc3c(c2)-c2c(c(C(N)=O)nn2-c2ccc4c(c2)OCO4)CC3)cc1 [Example 209]", "melting point": "181 to 182 °C"}
{"molecule": "NC(=O)c1nn(-c2ccc3c(c2)OCO3)c2c1CCc1ccc(NC(=O)c3cccnc3N)cc1-2 [Example 210]", "melting point": "265 to 267 °C"}
{"molecule": "NC(=O)c1nn(-c2ccc3c(c2)OCO3)c2c1CCc1ccc(NC(=O)c3cccnc3NCCO)cc1-2 [Example 208]", "melting point": "250 to 253 °C"}

====

Reported values of melting point for individual entries

{"compound": "NC(=O)c1nn(-c2ccc3c(c2)OCO3)c2c1CCc1ccc(NC(=O)c3nc(Cl)ccc3Cl)cc1-2 [Example 216]", "melting point": "263 to 265 °C"}
{"compound": "CN1CCN(c2cc(C(=O)Nc3ccc4c(c3)-c3c(c(C(N)=O)nn3-c3ccc(F)cc3)CC4)ccn2)CC1 [Example 251]", "melting point": "277 to 279 °C"}
{"compound": "NC(=O)c1nn(-c2ccc3c(c2)OCO3)c2c1CCc1ccc(NC(=O)c3cccnc3Cl)cc1-2 [Example 161]", "melting point": "165 to 166 °C"}
{"compound": "NC(=O)c1nn(-c2ccc3c(c2)OCO3)c2c1CCc1ccc(NC(=O)c3nc(N4CCOCC4)ccc3Cl)cc1-2 [Example 219]", "melting point": "260 to 262 °C (dec.)"}
{"compound": "CN1CCN(c2cc(C(=O)Nc3ccc4c(c3)-c3c(c(C(N)=O)nn3-c3ccc5c(c3)OCO5)CC4)c(Cl)cn2)CC1 [Example 214]", "melting point": "305 to 307 °C"}
{"compound": "NC(=O)c1nn(-c2ccc(F)cc2)c2c1CCc1ccc(NC(=O)c3cc(N4CCOCC4)ncc3Cl)cc1-2 [Example 249]", "melting point": "309 to 313 °C"}
{"compound": "NC(=O)c1nn(-c2ccc3c(c2)OCO3)c2c1CCc1ccc(NC(=O)c3cc(Cl)ncc3Cl)cc1-2 [Example 211]", "melting point": "292 to 293 °C"}

====

subject_of_test: IKK2 (Homo sapiens, UniProt O14920)
Construct: made in house; host or cells: insect cells (baculovirus, pFastBac; SF9)
Sequence (O14920 whole entry): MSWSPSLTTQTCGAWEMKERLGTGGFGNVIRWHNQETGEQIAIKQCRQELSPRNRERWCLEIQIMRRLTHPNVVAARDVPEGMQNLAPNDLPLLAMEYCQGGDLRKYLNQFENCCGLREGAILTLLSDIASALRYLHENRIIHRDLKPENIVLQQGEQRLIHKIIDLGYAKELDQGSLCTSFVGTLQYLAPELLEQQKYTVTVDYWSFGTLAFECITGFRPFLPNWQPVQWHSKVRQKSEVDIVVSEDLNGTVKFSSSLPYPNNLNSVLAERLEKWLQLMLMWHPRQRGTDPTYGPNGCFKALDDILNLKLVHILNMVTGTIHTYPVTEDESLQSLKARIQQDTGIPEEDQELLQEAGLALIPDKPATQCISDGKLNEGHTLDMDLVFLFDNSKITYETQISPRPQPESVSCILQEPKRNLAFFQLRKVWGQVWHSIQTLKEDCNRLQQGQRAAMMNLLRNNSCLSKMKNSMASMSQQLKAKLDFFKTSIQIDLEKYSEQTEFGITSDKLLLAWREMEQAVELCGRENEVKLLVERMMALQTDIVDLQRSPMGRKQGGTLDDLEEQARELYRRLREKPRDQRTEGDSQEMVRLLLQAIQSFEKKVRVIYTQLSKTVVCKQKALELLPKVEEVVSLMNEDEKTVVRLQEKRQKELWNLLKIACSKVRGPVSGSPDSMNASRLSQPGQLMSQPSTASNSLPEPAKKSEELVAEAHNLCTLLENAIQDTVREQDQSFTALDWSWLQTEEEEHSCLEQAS
test_summary: IKKβ Resin Enzyme Assay (IKK2 resin)
Format: biochemical
protocol_conditions: Table 5; read-out: IKK2 Resin Avg. IC50
Protocol: cDNAs of human IKK1 and IKK2 were amplified by reverse transcriptase-polymerase chain reaction from human placental RNA (Clonetech). hIKK1 was subcloned into pFastBac HTa (Life Technologies) and expressed as N-terminal His6-tagged fusion protein. […] IKKβ kinase activity was measured using a biotinylated IκBα peptide ([…]32-Gly-Leu-Asp-Ser36-Met-Lys-Asp-Glu-Glu) (American Peptide Co.). […] ATP was measured using a Top-Count NXT (Packard).
Reported values of IC50 for individual entries

{"molecule": "CNc1ccc(Cl)c(C(=O)Nc2ccc3c(c2)-c2c(c(C(N)=O)nn2-c2ccc4c(c2)OCO4)CC3)n1 [Example 220]", "IC50": "≤ 1000 nM"}
{"molecule": "NC(=O)c1nn(-c2ccc3c(c2)OCO3)c2c1CCc1ccc(NC(=O)c3nc(N4CCOCC4)ccc3Cl)cc1-2 [Example 219]", "IC50": "≤ 1000 nM"}
{"molecule": "NC(=O)c1nn(-c2ccc3c(c2)OCO3)c2c1CCc1ccc(NC(=O)c3cc(N4CCOCC4)ncc3Cl)cc1-2 [Example 212]", "IC50": "≤ 1000 nM"}
{"molecule": "NC(=O)c1nn(-c2ccc3c(c2)OCO3)c2c1CCc1ccc(NC(=O)c3cccnc3NCCO)cc1-2 [Example 208]", "IC50": "≤ 1000 nM"}
{"molecule": "CN1CCN(c2ccc(Cl)c(C(=O)Nc3ccc4c(c3)-c3c(c(C(N)=O)nn3-c3ccc5c(c3)OCO5)CC4)n2)CC1 [Example 217]", "IC50": "≤ 1000 nM"}
{"molecule": "CN(C)CCSc1ccc(Cl)c(C(=O)Nc2ccc3c(c2)-c2c(c(C(N)=O)nn2-c2ccc4c(c2)OCO4)CC3)n1 [Example 218]", "IC50": "≤ 1000 nM"}
{"molecule": "CNc1ncccc1C(=O)Nc1ccc2c(c1)-c1c(c(C(N)=O)nn1-c1ccc3c(c1)OCO3)CC2 [Example 207]", "IC50": "≤ 1000 nM"}
